This collection of values is drawn from paper doi:10.1101/856021.

# targetUnderTest: dP75 IBD-containing C-terminus region (residues 209-445) (Drosophila)
# assayProcedure: ITC
readoutName: pKd
One number for each entry, as −log10 of the molar value.

Prompt line: Entry under review: KREENFYGFSK [Jil-1 peptide at the distal site (…; residues 1102-1112)] . Reported pKd?
Response line: 3.92
